- Test system: NCI-H226 lung
- ASSAY_PROTOCOL: NCI tumour cell line growth inhibition, 48 h
READOUT_TYPE: GI50

Answer with the recorded GI50 for the compound listed here: O=C1C(=O)c2c(nc3ccc(Br)cn23)-c2ccccc21
1.61 µM

Consider the compound Cc1ccccc1-n1ncc(C(=O)c2ccccc2)c1N . State its measured GI50.
> 25 µM

Please give measured GI50 of the following entry: CCN1C(=O)N(CC)C2Nn3c(s/c(=C\c4ccccc4Br)c3=O)=NC21 (stereo unspecified)
6.31 µM

Entry CS(=O)(=O)Nc1ccc(-c2cc(-c3ccccc3)cc(C(N)=O)c2N)cc1 needs its GI50 filled in; supply it.
> 25 µM

Supply GI50 value. Item: O=C1c2ccccc2S(=O)(=O)N1CSC(=S)N1CCCCC1
> 100 µM

Hello, please tell me recorded GI50 for this one: CCCCCCCCN(CCCCCCCC)CCCCCCNc1cc(OC)cc2cccnc12
17 µM

For Cc1ccc(-c2cc3c(SCC(=O)Nc4cc(C(F)(F)F)ccc4Cl)nccn3n2)cc1 , write its GI50.
> 100 µM

Item Nc1nc(OCc2cc(Br)cs2)c2[nH]cnc2n1 : provide GI50
24.6 µM

Answer with the recorded GI50 of CN(Cc1cc(Br)cc(Br)c1O)Cc1cc(Br)cc(Br)c1O only.
4.75 µM

Respond only with GI50 recorded for O=C1c2nsnc2C(=O)c2c(F)c(F)c(F)c(F)c21
1.93 µM

Supply reported GI50 belonging to this compound: Clc1cccc(Cl)c1C1CSc2ccccc2N=C1c1ccccc1 (stereo unspecified)
20.5 µM

Tell us which GI50 value is on record for Oc1ccc(O)c(-c2cn3ccsc3n2)c1
9.11 µM

Note GI50 for the compound shown: C=C(C)[C@@H]1CC[C@]2(C(=O)O)CC[C@]3(C)[C@H](CC[C@@H]4[C@@]5(C)C[C@@H](CC#Cc6ccc(C(F)(F)F)cc6)[C@H](O)C(C)(C)[C@@H]5CC[C@]43C)[C@@H]12
2.91 µM

For the compound COc1ccc2cc(-c3cc4c(oc3=O)-c3ccccc3OC4O)c(=O)oc2c1 (stereo unspecified) , give its reported GI50.
16.1 µM

# return recorded GI50 for input O=[N+]([O-])c1ccccc1N/N=C\c1c[nH]c2ccccc12
12.6 µM

Give GI50 for C/C(=C\CCc1ccoc1)CC/C=C(\C)CCCN1CCOCC1
10.5 µM

###

Kindly state TGI for each of the entries shown.
- Tested on: SW-620 colon
- ASSAY_PROTOCOL: NCI tumour cell line growth inhibition, 48 h
Where a SMILES comes first, the peptide text is derived from it. The star is where a group is joined. Cbz = O=C(OCc1ccccc1)*; Boc = CC(C)(C)OC(=O)*; OSu = O=C1CCC(=O)N1O*; Bn = c1ccc(C*)cc1
# number only, unit µM dropped from output

Fill in: TGI on SW-620 colon, entry CCCCCCCCN(CCCCCCCC)CCCCCCNc1cc(OC)cc2cccnc12
10.1

Give TGI only, for CNC(=O)OCc1c2ccncc2c(C)c2c1[nH]c1ccccc12 , using SW-620 colon data.
2.38

Check SW-620 colon data and give TGI for COc1cc(OC)c2nc(C)c3c(c2c1)NCC3 .
19.1

Provide TGI, system SW-620 colon, entry CCCCCCCCCCCCCC1=NCCN1CCO
5.22

Answer briefly: TGI recorded on SW-620 colon for Cc1ccc(C(SCC(N)C(=O)O)(c2ccc(C)cc2)c2ccc(C)cc2)cc1 (stereo not drawn)
15.8

Tell me its TGI on SW-620 colon: CC(=O)OC/C=C\Cn1nc(Br)c(=O)[nH]c1=O
32.3

Report TGI on SW-620 colon for this entry: O=C1c2nsnc2C(=O)c2c(F)c(F)c(F)c(F)c21
0.348

// fetch TGI for COc1cc(OC)c(/C=C\c2ccnc3ccccc23)c(OC)c1 ; system: SW-620 colon
20.8

Given Clc1ccc2c(c1)N(CCCN1CCCC1)c1ccccc1S2 , report its TGI on SW-620 colon.
25.8

For SW-620 colon, give the measured TGI of the entry Clc1ccc2c(c1)N(c1ncnc3ccc(-c4cnc5[nH]ccc5c4)cc13)CC2
14.7

Recall the reported TGI of CC(C)(C)OC(=O)NC(Cc1ccc(OCc2ccccc2)cc1)C(=O)NC(CCCCNC(=O)OCc1ccccc1)C(=O)ON1C(=O)CCC1=O (stereo not drawn) (Boc-Tyr(Bn)-Lys(Cbz)-OSu; configuration not given here) on SW-620 colon and write it down.
41.1

Please tell me the measured TGI for COc1ccc(C(=O)COC(=O)[C@H](C[Se][Se]C[C@H](NC(=O)c2ccc(Br)cc2F)C(=O)OCC(=O)c2ccc(OC)cc2)NC(=O)c2ccc(Br)cc2F)cc1 ; system: SW-620 colon.
3.89

Report TGI from SW-620 colon testing of CN(Cc1cc(Br)cc(Br)c1O)Cc1cc(Br)cc(Br)c1O
16.9

Specify TGI for O=C(N=Nc1cccc(Cl)c1)NNc1cccc(Cl)c1 , system SW-620 colon.
35.5

# lookup: SW-620 colon TGI, key = COC(=O)c1c(O)ccc2c1c1c(n2Cc2ccc(Cl)cc2Cl)C(=O)c2ccccc2C1=O
32.4

# assay system SW-620 colon: give TGI of Clc1cccc(Cl)c1C1CSc2ccccc2N=C1c1ccccc1 (stereo not drawn)
5.64

Tell me TGI of NC(N)=N/N=C/c1c(-c2cc(Cl)sc2Cl)nc2sccn12 when tested on SW-620 colon.
2.43

State recorded TGI with SW-620 colon, entry Nc1nc2c(s1)CCc1c-2c(Br)n(Cc2ccccc2)c1Br , no comment.
9.74

Give reported TGI for CC(=O)OC1CCCn2c1nc1c2C(=O)C(C)=C(N2CC2)C1=O (stereo not drawn) (SW-620 colon)
0.927

Reference source: PubChem BioAssay (NCI)
